# test: logP determination by HPLC (EEC directive 79/831 Annex V. A8)
# Assay type: physicochemical
# conditionSet: HPLC (gradient, acetonitrile/0.1% aqueous phosphoric acid), gradient method
Where a name gives a salt, the structure may show the parent alone.
Lab note: anything with chromatographic logP at or over 3 counts as MET; the rest go in NOT MET.

Enquiry: Evaluate N#Cc1cnn2c(Cl)c(-c3ccc(F)cc3Cl)c(Cl)nc12 [Example 40] : chromatographic logP at minimum 3?
Return: MET

Enquiry: Check this compound for chromatographic logP at or above 3: CC(Nc1c(-c2c(F)cccc2Cl)c(Cl)nc2c(C#N)cnn12)C(C)(C)C (centres unmarked) [Example 36]
Return: MET

Enquiry: # bool: chromatographic logP of N#Cc1cnn2c(O)c(-c3c(F)cccc3Cl)c(O)nc12 [Example 39] >= 3
Return: NOT MET

Enquiry: Could you verify whether the entry CC(Nc1c(-c2c(F)cccc2Cl)c(Cl)nc2c(C(N)=O)cnn12)C(C)(C)C (centres unmarked) [Example 1] shows chromatographic logP of no less than 3?
Return: MET

Enquiry: Given CC(Nc1c(-c2ccc(F)cc2Cl)c(Cl)nc2c(C(N)=NO)cnn12)C(C)(C)C (centres unmarked) [Example 2] , state whether its chromatographic logP is at least 3.
Return: NOT MET

Enquiry: Does the compound N#Cc1cnn2c(Cl)c(-c3c(F)cccc3Cl)c(Cl)nc12 [Example 41] have recorded chromatographic logP that is 3 or more?
Return: MET

Enquiry: chromatographic logP >= 3 for CC(Nc1c(-c2ccc(F)cc2Cl)c(Cl)nc2c(C#N)cnn12)C(C)(C)C (centres unmarked) [Example 37] ?
Return: MET

Enquiry: Check the entry CC(Nc1c(-c2ccc(F)cc2Cl)c(Cl)nc2c(C(=N)N)cnn12)C(C)(C)C (single isomer, unassigned) [Example 3, hydrochloride] : does chromatographic logP equal or exceed 3?
Return: NOT MET

* * *

# test: logP determination by HPLC (EEC directive 79/831 Annex V. A8)
# Type: physicochemical
# conditionSet: gradient method, acetonitrile/0.1% aqueous phosphoric acid
metricName: chromatographic logP
Write the value as a bare number.

Enquiry: // returns reported chromatographic logP for input CC(Nc1c(-c2ccc(F)cc2Cl)c(Cl)nc2c(C=NNc3ccc([N+](=O)[O-])cc3[N+](=O)[O-])cnn12)C(C)(C)C (stereo not shown)
Return: 6.28

Provenance of the data: patent US20060276478A1
